Could you please report measured Inhibition of enzymatic activity Hill slope for the items listed next?
- ASSAYED_TARGET: HTLV-1 integrase (Human T-cell leukemia virus 1, UniProt P03362)
- Construct: Full-length wild type HTLV-1 IN was recombinantly expressed, purified, and characterized; SUMO (pET28a-SUMO fusion) (N); made in house
- Sequence (P03362 1168-1462): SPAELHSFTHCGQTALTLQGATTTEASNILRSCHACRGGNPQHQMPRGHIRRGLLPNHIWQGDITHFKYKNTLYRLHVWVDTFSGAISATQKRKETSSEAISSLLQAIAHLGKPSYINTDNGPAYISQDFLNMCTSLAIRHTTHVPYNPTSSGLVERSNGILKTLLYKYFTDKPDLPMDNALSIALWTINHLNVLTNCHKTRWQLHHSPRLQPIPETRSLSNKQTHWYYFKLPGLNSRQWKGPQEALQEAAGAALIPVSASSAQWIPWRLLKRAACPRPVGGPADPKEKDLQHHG
- PROCEDURE_DETAILS: In vitro HTLV-1 integrase strand transfer assay (concerted integration, agarose gel densitometry)
- Type: biochemical
- CONDITION_LABEL: dose-response fit of strand transfer inhibition
Answers are plain numbers.

COc1cc2c(cc1Cc1cccc(Cl)c1F)c(=O)c(C(=O)O)cn2[C@H](CO)C(C)C ... 1.0

Parameter requested: Inhibition of enzymatic activity Hill slope. Apply to each item below.
1. Cc1nnc(C(=O)NC(C)(C)c2nc(C(=O)NCc3ccc(F)cc3)c(O)c(=O)n2C)o1
2. O=C(NCc1c(F)cc(F)cc1F)c1cn2c(c(O)c1=O)C(=O)N1[C@H]3CC[C@H](C3)O[C@@H]1C2
3. C[C@@H]1CCO[C@H]2Cn3cc(C(=O)NCc4ccc(F)cc4F)c(=O)c(O)c3C(=O)N12
4. Cn1c(N2CCCCS2(=O)=O)nc(C(=O)NCc2ccc(F)cc2)c(O)c1=O

Solution:
[0.73, 1.2, 1.2, 0.83]
